Value source: PubChem BioAssay (Tox21)

Target: D(2) dopamine receptor (Homo sapiens) (UniProt P14416)
Sequence (P14416 whole entry, looked up): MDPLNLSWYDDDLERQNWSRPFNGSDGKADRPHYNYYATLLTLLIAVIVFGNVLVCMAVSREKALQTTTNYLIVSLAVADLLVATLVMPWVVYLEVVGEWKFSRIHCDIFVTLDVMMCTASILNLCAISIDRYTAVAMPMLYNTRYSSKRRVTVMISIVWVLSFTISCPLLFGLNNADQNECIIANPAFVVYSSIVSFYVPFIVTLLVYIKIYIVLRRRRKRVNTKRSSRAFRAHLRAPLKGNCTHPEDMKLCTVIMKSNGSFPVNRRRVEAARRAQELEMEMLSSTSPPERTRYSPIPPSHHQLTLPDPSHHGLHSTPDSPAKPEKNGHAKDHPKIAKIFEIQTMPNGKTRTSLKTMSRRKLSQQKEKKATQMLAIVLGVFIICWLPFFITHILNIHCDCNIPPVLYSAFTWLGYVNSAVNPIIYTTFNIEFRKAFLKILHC
Assay: Dopamine D2 receptor (DRD2) small molecule antagonists, cell-based qHTS assay (AID 1963595); note: % is set by controls: 0 for no effect and ±100 for the full control effect
Conditions: HEK293-DRD2 cAMP HTRF antagonist mode; series mostly up to 92.4 µM
Inconclusive results are not listed. The source made the active and inactive calls. Calls come from the whole dose curve; as a rule, active = well fitted inhibition curve with a large enough effect in the signal ratio in the repeat runs, with a control signal flat; inconclusive = weak or mixed curves, or effect the other way; inactive = flat fitted curve, though single readings scatter; the % refers to the signal ratio.
readout-type: activity change, negative = inhibition

compound | activity change, negative = inhibition
NC(Cc1ccc(Cl)cc1)C(=O)O (stereo not given) | 0.383% [at 0.348 µM] (inactive)
C=CCOc1nc(OCC=C)nc(OCC=C)n1 | inactive
CS(=O)(=O)c1ccc(-c2cn3ccccc3n2)cc1 | inactive
O=C(O)c1cc(Cl)cc(Cl)c1 | inactive
CCc1nnc(NS(=O)(=O)c2ccc(N)cc2)s1 | inactive

IN: Determine its reported activity change, negative = inhibition: CCCCCCC1CCCC(=O)O1 (stereo not given)
OUT: inactive

IN: Determine its reported activity change, negative = inhibition: O=C1CCCc2c(O)cccc21
OUT: inactive

IN: Determine its reported activity change, negative = inhibition: Cc1ccc(=O)n(-c2ccccc2)c1
OUT: inactive

IN: Determine its reported activity change, negative = inhibition: COc1ccc(-c2coc3cc(O)ccc3c2=O)cc1
OUT: inactive
